assayed-system: GST-tagged mouse Mcl-1-(152–309) (Mus musculus)
assay-name: Fluorescence polarization competitive binding assay, GST-Mcl-1 / FITC-Bim-BH3
measurement-setup: FP, compound at 50 µM
readout-label: inhibition at 50 µM (%)

Below: 4 compounds and their reported inhibition at 50 µM.
{"columns": ["compound", "assayed-system", "quantitative-readout"],
 "data": [
  ["[N-]=[N+]=NS(=O)(=O)c1ccc(CN(CCSc2ccccc2)Cc2ccc(S(=O)(=O)NC(=O)c3cccc4ccccc34)cc2)cc1 [SZ9TA7]", "GST-tagged mouse Mcl-1-(152–309) (Mus musculus)", 94.1],
  ["O=C(NS(=O)(=O)c1ccc(CN(CCSc2ccccc2)Cc2c(F)cccc2Cl)cc1)c1ccc(-c2ccc(F)cc2)cc1 [SZ15TA14]", "GST-tagged mouse Mcl-1-(152–309) (Mus musculus)", 58.8],
  ["O=C(NS(=O)(=O)c1ccc(CN(CCSc2ccccc2)Cc2ccc3c(c2)OCO3)cc1)c1cccc(NCCc2ccccc2)c1 [SZ31TA44]", "GST-tagged mouse Mcl-1-(152–309) (Mus musculus)", 36.5],
  ["NS(=O)(=O)c1ccc(CN(CCSc2ccccc2)Cc2ccc(S(=O)(=O)NC(=O)c3cccc(NCCc4ccccc4)c3)cc2)cc1 [SZ10TA44]", "GST-tagged mouse Mcl-1-(152–309) (Mus musculus)", 63.4]
]}

P = NS(=O)(=O)c1ccc(CN(CCSc2ccccc2)Cc2ccc(S(=O)(=O)NC(=O)Cn3c4ccccc4c4ccccc43)cc2)cc1 [SZ10TA15]
Q = Cn1cc(C(=O)C2CCCCC2)c2cc(C(=O)NS(=O)(=O)c3ccc(COc4ccc5c(=O)cc(-c6ccccc6)oc5c4)cc3)ccc21 [SZ14TA40]
Query block: Between the entries labelled P and Q , which has a larger inhibition at 50 µM value on record? Kindly state the label of the option you pick.
Result block: Q
(Q: 93.1%, P: 37.4%)

* * *

assayed-system: Mcl-1 (Mus musculus, UniProt P97287)
Sequence (P97287 whole entry, the tested form may be a part): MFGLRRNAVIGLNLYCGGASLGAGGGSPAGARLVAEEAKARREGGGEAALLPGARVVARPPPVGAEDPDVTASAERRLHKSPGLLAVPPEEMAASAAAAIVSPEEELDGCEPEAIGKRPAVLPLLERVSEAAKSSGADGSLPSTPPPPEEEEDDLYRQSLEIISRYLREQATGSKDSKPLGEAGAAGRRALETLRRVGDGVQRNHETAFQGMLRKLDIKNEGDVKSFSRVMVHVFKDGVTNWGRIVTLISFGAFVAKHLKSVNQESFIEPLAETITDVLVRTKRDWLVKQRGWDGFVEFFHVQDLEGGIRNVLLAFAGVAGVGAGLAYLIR
assay-name: Binary KTGS incubation (1 TA x 1 SZ) with Mcl-1, LC-MS/MS
measurement-setup: binary incubation mixtures with and without Mcl-1
readout-label: Amplification coefficient 1TA x 1SZ

{"columns": ["compound-smiles", "assayed-system", "Amplification coefficient 1TA x 1SZ"],
 "data": [
  ["COc1cccc(CN(CCSc2ccccc2)Cc2ccc(S(=O)(=O)NC(=O)Cn3c4ccccc4c4ccccc43)cc2)c1", "Mcl-1 (Mus musculus, UniProt P97287)", 4],
  ["Cn1cc(C(=O)c2cccs2)c2cc(C(=O)NS(=O)(=O)CCN(CCSc3ccccc3)Cc3ccc4c(c3)OCO4)ccc21", "Mcl-1 (Mus musculus, UniProt P97287)", 5],
  ["Cn1cc(C(=O)C2CCCCC2)c2cc(C(=O)NS(=O)(=O)c3ccc(-c4ccc(C(C)(C)C)cc4)cc3)ccc21", "Mcl-1 (Mus musculus, UniProt P97287)", 5.5],
  ["COc1cccc(CN(CCSc2ccccc2)Cc2ccc(S(=O)(=O)NC(=O)c3ccc(OC(F)(F)F)cc3)cc2)c1", "Mcl-1 (Mus musculus, UniProt P97287)", 4],
  ["COc1cc(OC)cc(C(=O)NS(=O)(=O)c2ccc(CN(CCSc3ccccc3)Cc3c(F)cccc3Cl)cc2)c1", "Mcl-1 (Mus musculus, UniProt P97287)", 4]
]}

a = O=C(NS(=O)(=O)c1ccc(CN(CCSc2ccccc2)Cc2ccc3c(c2)OCO3)cc1)c1ccc(-c2ccc(F)cc2)cc1
b = COc1cccc(CN(CCSc2ccccc2)Cc2ccc(S(=O)(=O)NC(=O)c3ccc4c(c3)c(C(=O)c3cccs3)cn4C)cc2)c1
Query block: Endpoint returns whichever of a and b has the numerically higher Amplification coefficient 1TA x 1SZ. Answer = label.
Result block: b
(b: 20, a: 4)

* * *

assayed-system: Bcl-XL (Homo sapiens)
Sequence (Q07817 whole entry, species assumed, the tested form may be a part): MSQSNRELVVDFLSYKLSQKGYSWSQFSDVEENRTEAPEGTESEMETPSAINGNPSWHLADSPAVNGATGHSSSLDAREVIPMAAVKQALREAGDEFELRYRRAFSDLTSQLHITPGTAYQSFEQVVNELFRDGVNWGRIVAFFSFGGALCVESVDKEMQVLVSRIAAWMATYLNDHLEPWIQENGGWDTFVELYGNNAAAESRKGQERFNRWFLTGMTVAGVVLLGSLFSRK
assay-name: Multifragment KTGS incubation with Bcl-XL (9 TA x 9 SZ in one well), LC-MS/MS
measurement-setup: 81 combinations in one well, 5 μM Bcl-XL, phosphate buffer pH 7.4, 8 h
readout-label: Amplification coefficient

Study these solved cases before continuing.
{"columns": ["compound", "assayed-system", "Amplification coefficient"],
 "data": [
  ["CC1(C)CCN(c2ccc(C(=O)NS(=O)(=O)c3ccc(NCCSc4ccccc4)c([N+](=O)[O-])c3)cc2)CC1 [SZ4TA2, reference compound]", "Bcl-XL (Homo sapiens)", 15.0],
  ["[N-]=[N+]=NS(=O)(=O)c1ccc(CN(CCSc2ccccc2)Cc2ccc(S(=O)(=O)NC(=O)c3ccccc3)cc2)cc1", "Bcl-XL (Homo sapiens)", 7.3]
]}

I = CC1(C)CCN(c2ccc(C(=O)NS(=O)(=O)c3ccc4ccc(S(=O)(=O)NCCSc5ccccc5)cc4c3)cc2)CC1
II = COc1cc(OC)cc(C(=O)NS(=O)(=O)c2ccc(CN(CCSc3ccccc3)Cc3ccc(S(=O)(=O)N=[N+]=[N-])cc3)cc2)c1
Query block: Which entry has a larger number for Amplification coefficient, I or II ? Mark your selection by writing its label.
Result block: I
(I: 15.2, II: 7.6)

* * *

assayed-system: GST-tagged mouse Mcl-1-(152–309) (Mus musculus, UniProt P97287)
Sequence (P97287 152-309): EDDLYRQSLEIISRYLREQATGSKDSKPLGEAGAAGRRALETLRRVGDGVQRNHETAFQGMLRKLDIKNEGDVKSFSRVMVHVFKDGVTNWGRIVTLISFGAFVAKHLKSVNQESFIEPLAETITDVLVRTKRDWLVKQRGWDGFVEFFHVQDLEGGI
assay-name: Fluorescence polarization competitive binding assay, GST-Mcl-1 / FITC-Bim-BH3
measurement-setup: FP, compound at 50 µM
readout-label: inhibition at 50 µM (%)

These recorded examples may help you get a feel for the data.
{"columns": ["compound-smiles", "readout-label", "unit-of-measure", "quantitative-readout"],
 "data": [
  ["O=C(NS(=O)(=O)c1ccc(CN(CCSc2ccccc2)Cc2c(F)cccc2Cl)cc1)c1cccc2ccccc12", "inhibition at 50 µM", "%", 98.4],
  ["O=C(NS(=O)(=O)c1ccc(NCCSc2ccccc2)c([N+](=O)[O-])c1)c1ccc2c(ccn2Cc2ccc(C(F)(F)F)cc2C(F)(F)F)c1", "inhibition at 50 µM", "%", 80.7],
  ["Cc1noc(C)c1-c1ccc(S(=O)(=O)NC(=O)c2ccc(CN3C(=O)C(c4ccc(F)cc4F)=C(c4ccc(F)cc4F)C3=O)cc2)cc1", "inhibition at 50 µM", "%", 91],
  ["O=C(NS(=O)(=O)c1ccc(CN(CCSc2ccccc2)Cc2ccc3c(c2)OCO3)cc1)c1ccc(-c2ccc(F)cc2)cc1", "inhibition at 50 µM", "%", 59.5],
  ["CCOc1ccc(-c2ccc3c(c2)c(C(=O)NS(=O)(=O)c2cccc4c(N(C)C)cccc24)cn3C)cc1F", "inhibition at 50 µM", "%", 42.8],
  ["COc1ccc(Cc2ccc(C(=O)NS(=O)(=O)c3ccc(-c4ccc(Oc5ccccc5)cc4)cc3)cc2)c(OC)c1OC", "inhibition at 50 µM", "%", 76.4],
  ["COc1ccc(Cc2ccc(C(=O)NS(=O)(=O)c3ccc(CN(CCSc4ccccc4)Cc4c(F)cccc4Cl)cc3)cc2)c(OC)c1OC", "inhibition at 50 µM", "%", 70.8],
  ["NS(=O)(=O)c1ccc(CN(CCSc2ccccc2)Cc2ccc(S(=O)(=O)NC(=O)c3ccc(-c4ccccn4)cc3)cc2)cc1", "inhibition at 50 µM", "%", 93.6]
]}

I = O=C(Cn1c2ccccc2c2ccccc21)NS(=O)(=O)c1ccc(CN(CCSc2ccccc2)Cc2ccc3c(c2)OCO3)cc1
II = COc1cccc(CN(CCSc2ccccc2)Cc2ccc(S(=O)(=O)NC(=O)c3ccc4c(c3)c(C(=O)c3cccs3)cn4C)cc2)c1
III = O=C(Cn1c2ccccc2c2ccccc21)NS(=O)(=O)c1ccc(CN(CCSc2ccccc2)Cc2c(F)cccc2Cl)cc1
Query block: Arrange items by their inhibition at 50 µM values in increasing order. List each label, following the requested order.
Result block: II, III, I
(II: 34.5%, III: 53.6%, I: 80.7%)

P = COc1cccc(CN(CCSc2ccccc2)Cc2ccc(S(=O)(=O)NC(=O)Cn3c4ccccc4c4ccccc43)cc2)c1
Q = COc1cc(OC)cc(C(=O)NS(=O)(=O)c2ccc(CN(CCSc3ccccc3)Cc3ccc(S(=O)(=O)N=[N+]=[N-])cc3)cc2)c1
Query block: # returns the entry with the larger inhibition at 50 µM; inputs P and Q API: response body contains the label of the selected item.
Result block: Q
(Q: 99%, P: 60.6%)

P = O=C(NS(=O)(=O)c1ccc(NCCSc2ccccc2)c([N+](=O)[O-])c1)c1ccc(CCc2ccccn2)cc1
Q = COc1ccc(Cc2ccc(C(=O)NS(=O)(=O)c3ccc(CN(CCSc4ccccc4)Cc4ccc5c(c4)OCO5)cc3)cc2)c(OC)c1OC
Query block: Please indicate which item has the smaller measured inhibition at 50 µM: P versus Q Answer by stating the label of the chosen item.
Result block: P
(P: 44.7%, Q: 82.4%)

* * *

assayed-system: Mcl-1 (Mus musculus, UniProt P97287)
assay-name: Multifragment KTGS screen against Mcl-1 (5 TA x 38 SZ per well), LC-MS/MS
measurement-setup: multifragment KTGS, 190 combinations per well, 10 μM Mcl-1, 20 μM each fragment, pH 7.4, 37 °C, 10 h; peak area with protein / without protein
readout-label: Amplification coefficient 5TA x 38SZ

Take a look at these entries with their results.
{"columns": ["compound", "Amplification coefficient 5TA x 38SZ"],
 "data": [
  ["COc1cc2c(cc1OC)C(c1ccccc1)N(Cc1ccc(S(=O)(=O)NC(=O)CCCN3C(=O)C(c4ccc(F)cc4F)=C(c4ccc(F)cc4F)C3=O)cc1)CC2 (stereo not shown)", 20],
  ["Cc1nc(-c2ccccc2)sc1C(=O)NS(=O)(=O)c1ccc(CN(CCSc2ccccc2)Cc2c(F)cccc2Cl)cc1", 10],
  ["[N-]=[N+]=NS(=O)(=O)c1ccc(CN(CCSc2ccccc2)Cc2ccc(S(=O)(=O)NC(=O)c3ccccc3)cc2)cc1", 14],
  ["COc1cccc(CN(CCSc2ccccc2)Cc2ccc(S(=O)(=O)NC(=O)c3cccc4ccccc34)cc2)c1", 10]
]}

P = Cn1cc(C(=O)C2CCCCC2)c2cc(C(=O)NS(=O)(=O)c3ccc(-c4ccc(C(C)(C)C)cc4)cc3)ccc21
Q = [N-]=[N+]=NS(=O)(=O)c1ccc(CN(CCSc2ccccc2)Cc2ccc(S(=O)(=O)NC(=O)c3ccc(-c4ccccn4)cc3)cc2)cc1
Query block: // compare: P vs Q , metric Amplification coefficient 5TA x 38SZ, want the smaller Which one? Tell me its label.
Result block: P
(P: 8, Q: 15)
